// compounds with IC50 on UniProt P00742, multi-source literature
Output spec: scalar in nM, unitless text.

Solved cases (5 shown):
compound: CN(Cc1ccc(C(=O)Nc2ccc(Cl)cc2C(=O)Nc2ccc(Cl)cn2)cc1)C(=N)c1ccccc1
unit-of-measurement: nM
IC50: 11

compound: O=C(Cc1ccc2[nH]c(-c3ccc(Cl)s3)nc2c1)NCC1CCN(c2ccncc2)CC1
unit-of-measurement: nM
IC50: 14

compound: Nc1cnc2cccc(N3CCN(C(=O)CCS(=O)(=O)c4ccc5cc(Cl)ccc5c4)CC3)n12
unit-of-measurement: nM
IC50: 35

compound: CC(C)c1cc(CCN2CCc3cccc(C(=O)O)c32)cc(-c2ccc3c(c2)[C@H](N)CO3)c1
unit-of-measurement: nM
IC50: 1830

compound: CN(CC(=O)O)Cc1ccc(C(=O)Nc2ccc(Cl)cc2C(=O)Nc2ccc(Cl)cn2)cc1
unit-of-measurement: nM
IC50: 156

What IC50 value was documented for this compound, Cc1nc(C)n2c1CN(C1CCN(C(=O)CCS(=O)(=O)c3ccc4cc(Cl)ccc4c3)CC1)C2=O ? 5.3

What IC50 value was documented for this compound, CN(C)c1cccc(N/C(=C\[N+](=O)[O-])N[C@H]2CCCCN(CC(=O)N3CCCC3)C2=O)c1 ? 2100

What IC50 value was documented for this compound, CC(C)=CCc1ccc(-c2ccc(C(=O)NCC(C)C)cc2C(=O)O)c(C(=O)Nc2ccc(C(=N)N)cc2)c1 ? 27000

###

// molecules with pIC50 on Coagulation factor X (Homo sapiens, UniProt P00742), multi-source literature
pIC50: −log10 of the molar value.
Returns one of T or F; T when pIC50 is >= 7.

The following molecules have reported results that may help.
molecule: Cn1cc(-c2ccc(C(=O)N[C@@H]3CCN(c4ncc(Cl)c5c(N)noc45)C3)c(Cl)c2)cnc1=O
group: F

molecule: Nc1nc(-c2ccncc2)nn1C(=O)C1CCCCC1
group: F

molecule: N=C(N)c1ccc(CNC(=O)[C@@H]2C=CCN2C(=O)[C@@H](CC2CCCCC2)NCC(=O)O)s1
group: F

molecule: CC(=O)Nc1ccc(C(=O)Nc2cc(C(N)=O)ccc2NC(=O)c2ccc(-n3ccccc3=O)cc2)cc1
group: T

molecule: N=C(N)NCCCC(NC(=O)CNC(=O)[C@@H](Cc1ccccc1)NS(=O)(=O)Cc1ccccc1)C(=O)c1nccs1 (some centres not stated)
group: T

Hello, I need to know if COc1ccc(NC(=O)c2ccc(Cl)cc2)c(C(=O)Nc2ccc(N3CCCCC3=O)cc2)c1 has measured pIC50 not below 7. Thanks! T

Hello, I need to know if CC(C)C[C@H](NC(=O)NCc1ccc(Cl)c(Cl)c1)C(=O)N[C@H](C(=O)N[C@@H](CCCN=C(N)N)C(=O)c1nccs1)C(C)(C)C has measured pIC50 not below 7. Thanks! F

Hello, I need to know if Cc1cc(C(=O)Nc2ccc(-c3ccccc3S(N)(=O)=O)cc2)n(-c2ccc3cc(Cl)ccc3c2)n1 has measured pIC50 not below 7. Thanks! T

Hello, I need to know if O=C(NC[C@@H]1OC(=O)N2c3ccc(N4CCOC4=O)cc3OC[C@@H]12)c1ccc(Cl)s1 has measured pIC50 not below 7. Thanks! F

###

// compounds with IC50 on Coagulation factor X (Homo sapiens), multi-source literature
So basically, the class depends on measured IC50, and the ranges are lo (below 300 nM), med (300 nM to below 800 nM), hi (800 nM or more)

The following compounds have reported results that may help.
compound: Cc1cc(C(=O)Nc2ccc(N3CCNCCC3=O)cc2F)n(-c2cc3ccccc3cc2S(C)(=O)=O)n1
target-system: Coagulation factor X (Homo sapiens)
group: med
//
compound: C[C@@]1(CO)C[C@@H](O)C[C@@]2(C)[C@@H]3CC[C@](C)([C@@H](O)CO)C=C3CC[C@H]12
target-system: Coagulation factor X (Homo sapiens)
group: hi
//
compound: Cc1cc(N2CCC(N(C)C(=O)CCS(=O)(=O)c3ccc4ccc(Cl)cc4c3)CC2)ccn1
target-system: Coagulation factor X (Homo sapiens)
group: hi
//
compound: COc1ccc(NC(=O)C(=O)Nc2ccccc2OC)c(C(=O)Nc2ccc(N3CCOCC3=O)cc2)c1
target-system: Coagulation factor X (Homo sapiens)
group: hi
//
compound: Nc1nc(-c2ccccn2)nn1C(=O)CNC(=O)c1ccccc1
target-system: Coagulation factor X (Homo sapiens)
group: hi
//
compound: COC(=O)C(Cc1cccc(C(=N)N)c1)C(/C=C/c1ccccc1)NC(=O)c1ccc(-c2ccc(OC)cc2OC)cc1 (centres undefined)
target-system: Coagulation factor X (Homo sapiens)
group: lo
//
compound: CN1CCc2nc(C(=O)N3CCN(S(=O)(=O)c4ccc5cc(Cl)ccc5c4)CC3)ccc2C1
target-system: Coagulation factor X (Homo sapiens)
group: hi
//
compound: CC(=O)O[C@@H]1CC[C@@]2(C)[C@@H]3CC[C@](C)(O)CC=C3CC[C@@H]2C1(C)C
target-system: Coagulation factor X (Homo sapiens)
group: hi
//
compound: CO[C@H]1O[C@H](COS(=O)(=O)O)[C@@H](O[C@@H]2O[C@@H](C(=O)O)[C@@H](O[C@@H]3O[C@H](COS(=O)(=O)O)[C@@H](O[C@@H]4O[C@H](C(=O)O)[C@@H](O[C@H]5O[C@H](COS(=O)(=O)O)[C@@H](O)[C@H](O)[C@H]5NS(=O)(=O)O)[C@H](O)[C@H]4O)[C@H](OS(=O)(=O)O)[C@H]3NS(=O)(=O)O)[C@H](O)[C@H]2OS(=O)(=O)O)[C@H](O)[C@H]1NS(=O)(=O)O
target-system: Coagulation factor X (Homo sapiens)
group: lo
//
compound: CC(=N)N1CCC(Oc2ccc(N(Cc3cc4cc(C(=N)N)ccc4s3)S(=O)(=O)CC(=O)O)cc2)CC1
target-system: Coagulation factor X (Homo sapiens)
group: lo

Which category does the recorded IC50 put N=C(N)c1ccc2ccc(OCC3(C(=O)O)CCN(c4ccncc4)CC3)cc2c1 in? med

Which category does the recorded IC50 put Cc1cc2cc(N/C(N[C@H]3CCCCN(CC(=O)N4CCCC4)C3=O)=C(/C#N)S(=O)(=O)C(C)C)ccc2o1 in? med

Which category does the recorded IC50 put CN1CCc2nc(C(=O)N[C@@H]3C[C@@H]3NS(=O)(=O)c3cc4cc(Cl)ccc4[nH]3)sc2C1 (relative stereo) in? lo

Which category does the recorded IC50 put Cc1cccc(NC(=N[C@H]2CCCCN(CC(=O)N3CCCC3)C2=O)NC(=O)c2cc(Cl)cc(Cl)c2)c1 in? hi

###

pIC50: −log10 of the molar value.
// compounds with pIC50 on Coagulation factor X (Homo sapiens, UniProt P00742), multi-source literature
Returns one of criterion met or criterion not met; criterion met when pIC50 is >= 6.

compound: NC(N)=NCCC[C@H](NC(=O)[C@H](Cc1cccnc1)NC(=O)[C@@H](Cc1ccccc1)NS(=O)(=O)Cc1ccccc1)C(=O)c1nccs1
group: criterion met
--
compound: N=C(N)NCCC[C@H](NC(=O)[C@H](CC1CCCCC1)NC(=O)[C@@H](Cc1ccccc1)NS(=O)(=O)Cc1ccccc1)C(=O)c1nccs1
group: criterion not met
--
compound: N=C(N)NCCCC(NC(=O)CN1CCN(S(=O)(=O)c2ccc(F)cc2)CC1=O)C(=O)c1nccs1 (centres undefined)
group: criterion met
--
compound: CC(C)N1CCC(C(=O)Nc2ccc(Cl)cc2C(=O)Nc2ccc(Cl)cn2)CC1
group: criterion met
--
compound: Cc1coc2ccc(N=C(NC#N)N[C@H]3CCCCN(CC(=O)N4CCCC4)C3=O)cc12
group: criterion not met

Hello, I need to know if C#Cc1ccc(NC(=O)c2cc(Cl)ccc2NC(=O)c2ccc(C(=N)N(C)C)cc2)cc1 has measured pIC50 not below 6. Thanks! criterion met

Hello, I need to know if COc1ccc(C(=O)n2nc(-c3ccccn3)nc2N)cc1 has measured pIC50 not below 6. Thanks! criterion not met

Hello, I need to know if C[C@@]1(CO)C[C@@H](O)C[C@@]2(C)C3=C(CC[C@H]12)[C@H]1OC[C@H](O)[C@@]1(C)CC3 has measured pIC50 not below 6. Thanks! criterion not met

Hello, I need to know if CC(=N)NCc1ccc(C(=O)Nc2ccc(Cl)cc2C(=O)Nc2ccc(Cl)cn2)cc1 has measured pIC50 not below 6. Thanks! criterion met

Hello, I need to know if CN1CCc2nc(C(=O)N[C@@H]3CCCC[C@H]3NS(=O)(=O)c3cc4cc(Cl)ccc4[nH]3)sc2C1 (relative stereo) has measured pIC50 not below 6. Thanks! criterion not met

Hello, I need to know if CN1CCN=C1c1ccc(C(=O)N2CCN(S(=O)(=O)c3cc4cc(Cl)ccc4[nH]3)CC2CC(N)=O)cc1 (centres undefined) has measured pIC50 not below 6. Thanks! criterion met

Hello, I need to know if COc1ccc(NC(=O)c2nc3c(s2)CN(C)CC3)c(C(=O)Nc2ccc(Cl)cc2)c1 has measured pIC50 not below 6. Thanks! criterion met

Hello, I need to know if CC(C)CNC(=O)c1ccc(-c2ccc(-c3ccc[nH]3)cc2C(=O)Nc2ccc(C(=N)N)cc2)c(C(=O)O)c1 has measured pIC50 not below 6. Thanks! criterion met

Hello, I need to know if CN1CCN=C1c1ccc(NC(=O)c2nnnn2-c2cc3ccccc3cc2F)c(F)c1 has measured pIC50 not below 6. Thanks! criterion met

Hello, I need to know if Nc1noc2c(N3CC[C@@H](NC(=O)c4ccc(-n5cnnc5)cc4Cl)C3)ccc(F)c12 has measured pIC50 not below 6. Thanks! criterion not met

Hello, I need to know if CCC(=O)N1CC[C@H](NC(=O)c2cc3cc(Cl)ccc3[nH]2)[C@H](NC(=O)c2nc3c(s2)CN(C)CC3)C1 has measured pIC50 not below 6. Thanks! criterion met

Hello, I need to know if Cc1cc(C(=O)Nc2ccc(C3=NCCN3C)cc2F)n(-c2cc3ccccc3cc2F)n1 has measured pIC50 not below 6. Thanks! criterion met

Hello, I need to know if COc1ccc(S(=O)(=O)N2CCN(CC(=O)NC(CCCNC(=N)N)C(=O)c3nccs3)C(=O)C2)cc1 (centres undefined) has measured pIC50 not below 6. Thanks! criterion met

Hello, I need to know if N=C(N)NCCC[C@H](NC(=O)CN1CC(=O)N[C@@H](CCCNC(=N)N)C1=O)C(=O)c1nccs1 has measured pIC50 not below 6. Thanks! criterion met

Hello, I need to know if COC(=O)c1cc2ccccc2cc1-n1nc(C)cc1C(=O)Nc1ccc(-c2ccccc2S(N)(=O)=O)cc1 has measured pIC50 not below 6. Thanks! criterion met

Hello, I need to know if CCc1nccn1C1CCN(C(=O)CCS(=O)(=O)c2ccc3cc(Cl)ccc3c2)CC1 has measured pIC50 not below 6. Thanks! criterion met

Hello, I need to know if O=C(Cc1ccc2[nH]c(-c3ccc(Br)s3)nc2c1)Nc1ccc(-n2ccccc2=O)cc1 has measured pIC50 not below 6. Thanks! criterion met

Hello, I need to know if CC1(C)OCC([C@]2(C)C=C3CC[C@@H]4[C@](C)(CO)C[C@@H](O)C[C@@]4(C)[C@@H]3CC2)O1 (some centres undefined) has measured pIC50 not below 6. Thanks! criterion not met

Hello, I need to know if Nc1noc2c(N3CC[C@@H](NC(=O)c4ccc(-c5ncccn5)cc4Cl)C3)ncc(Cl)c12 has measured pIC50 not below 6. Thanks! criterion not met

Hello, I need to know if CC(=O)N1CCN(c2ccc3c(c2)OC[C@H]2[C@H](CNC(=O)c4ccc(Cl)s4)OC(=O)N32)C(=O)C1 has measured pIC50 not below 6. Thanks! criterion met

Hello, I need to know if O=C(NC[C@H]1CN(c2ccc(N3CCSCC3)c(F)c2)C(=O)O1)c1cccs1 has measured pIC50 not below 6. Thanks! criterion not met
